# system: hTG2 (Homo sapiens)
# experiment: biochemical
# condition.set: fit to saturation kinetics model; 25° C., pH 6.95, 100 μM AL5; read-out: kinact/KI (converted)
measurement.type: kinact/KI (M⁻¹ s⁻¹)
Your answer is read as M⁻¹ s⁻¹, so omit the unit and give the number.

[in] Query (compound): C=CC(=O)NCCCC[C@H](NC(=O)Cc1cccc(F)c1)C(=O)N1CCN(C(=O)c2cccc3ccccc23)CC1 [Inhibitor 71] ; field requested: kinact/KI
[out] 2580

[in] Query (compound): C=CC(=O)NCCCC[C@H](NC(=O)c1ccccc1F)C(=O)N1CCN(C(=O)c2cccc3ccccc23)CC1 [Inhibitor 62] ; field requested: kinact/KI
[out] 657

[in] Query (compound): C=CC(=O)NCCCC[C@H](NS(=O)(=O)Cc1ccccc1)C(=O)N1CCN(C(=O)c2cccc3ccccc23)CC1 [Inhibitor 88] ; field requested: kinact/KI
[out] 190

[in] Query (compound): C=CC(=O)NCCCC[C@H](NC(=O)CCc1ccccc1)C(=O)N1CCN(C(=O)c2cccc3ccccc23)CC1 [Inhibitor 68] ; field requested: kinact/KI
[out] 3570

---

# system: hTG2 (Homo sapiens)
# Sequence (P21980 1-687): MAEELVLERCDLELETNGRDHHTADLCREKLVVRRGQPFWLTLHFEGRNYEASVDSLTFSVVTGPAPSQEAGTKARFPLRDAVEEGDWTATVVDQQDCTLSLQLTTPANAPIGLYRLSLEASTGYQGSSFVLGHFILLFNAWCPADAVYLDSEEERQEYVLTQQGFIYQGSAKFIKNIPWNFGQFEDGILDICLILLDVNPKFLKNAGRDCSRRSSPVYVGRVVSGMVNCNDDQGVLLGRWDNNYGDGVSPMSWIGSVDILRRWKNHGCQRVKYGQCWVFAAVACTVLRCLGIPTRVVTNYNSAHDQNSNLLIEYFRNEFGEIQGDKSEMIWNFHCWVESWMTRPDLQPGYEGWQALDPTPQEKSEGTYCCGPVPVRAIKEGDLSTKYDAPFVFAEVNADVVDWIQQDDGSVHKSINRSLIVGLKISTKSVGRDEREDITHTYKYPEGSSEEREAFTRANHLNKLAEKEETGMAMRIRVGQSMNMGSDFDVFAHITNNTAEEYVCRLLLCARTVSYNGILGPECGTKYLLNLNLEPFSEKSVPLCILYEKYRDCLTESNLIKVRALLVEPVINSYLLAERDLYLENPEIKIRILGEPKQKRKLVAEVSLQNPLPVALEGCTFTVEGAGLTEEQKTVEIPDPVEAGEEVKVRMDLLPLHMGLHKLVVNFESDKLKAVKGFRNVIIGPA
# experiment: biochemical
# condition.set: values determined using a double-reciprocal analysis; read-out: kinact (converted)
measurement.type: kinact (s⁻¹)
Your answer is read as s⁻¹, so omit the unit and give the number.

[in] Query (molecule): C=CC(=O)NCCCC[C@H](NC(=O)c1cccc(F)c1)C(=O)N1CCN(C(=O)c2cccc3ccccc23)CC1 [Inhibitor 63] ; field requested: kinact
[out] 0.0085

[in] Query (molecule): C=CC(=O)NCCCC[C@H](NC(=O)c1ccncc1)C(=O)N1CCN(C(=O)c2cccc3ccccc23)CC1 [Inhibitor 20] ; field requested: kinact
[out] 0.004

[in] Query (molecule): C=CC(=O)NCCCC[C@H](NC(=O)c1cccnc1)C(=O)N1CCN(C(=O)c2cccc3ccccc23)CC1 [Inhibitor 19] ; field requested: kinact
[out] 0.00983

[in] Query (molecule): C=CC(=O)NCCCC[C@H](NC(=O)c1ccc(F)cc1)C(=O)N1CCN(C(=O)c2cccc3ccccc23)CC1 [Inhibitor 64] ; field requested: kinact
[out] 0.0117

[in] Query (molecule): C=CC(=O)NCCCC[C@H](NS(=O)(=O)c1ccccc1)C(=O)N1CCN(C(=O)c2cccc3ccccc23)CC1 [Inhibitor 89] ; field requested: kinact
[out] 0.0105

[in] Query (molecule): C=CC(=O)NCCCC[C@H](NC(=O)c1ccccn1)C(=O)N1CCN(C(=O)c2cccc3ccccc23)CC1 [Inhibitor 18] ; field requested: kinact
[out] 0.0065
